These measurements were taken from ChEMBL document CHEMBL1153064.

# test-details: in vitro
# measurement-conditions: human, microsomes
reported-property: half-life at 0.75 h, 3 µM (min)
// return numeric value only (unit: min, not printed)

Need half-life at 0.75 h, 3 µM, item N[C@@H](CC(=O)N1CCC[C@H]1COCC1CC1)Cc1cc(F)c(F)cc1F
30

* * *

# test-details: in vitro
# measurement-conditions: human, liver microsomes
reported-property: half-life at 0.75 h, 3 µM (h)
// return numeric value only (unit: h, not printed)

{"columns": ["structure-notation", "result-number"],
 "data": [
  ["N[C@@H](CC(=O)N1CCC[C@H]1CNC(=O)C1CCC1)Cc1cc(F)c(F)cc1F", 0.633]
]}

Please look at the following molecule next.
Need half-life at 0.75 h, 3 µM, item N[C@@H](CC(=O)N1CCC[C@H]1CNC(=O)C1CCCC1)Cc1cc(F)c(F)cc1F
1.18
